target-or-system: Large T antigen (Simian virus 40) (UniProt P03070)
Sequence (P03070 whole entry, looked up): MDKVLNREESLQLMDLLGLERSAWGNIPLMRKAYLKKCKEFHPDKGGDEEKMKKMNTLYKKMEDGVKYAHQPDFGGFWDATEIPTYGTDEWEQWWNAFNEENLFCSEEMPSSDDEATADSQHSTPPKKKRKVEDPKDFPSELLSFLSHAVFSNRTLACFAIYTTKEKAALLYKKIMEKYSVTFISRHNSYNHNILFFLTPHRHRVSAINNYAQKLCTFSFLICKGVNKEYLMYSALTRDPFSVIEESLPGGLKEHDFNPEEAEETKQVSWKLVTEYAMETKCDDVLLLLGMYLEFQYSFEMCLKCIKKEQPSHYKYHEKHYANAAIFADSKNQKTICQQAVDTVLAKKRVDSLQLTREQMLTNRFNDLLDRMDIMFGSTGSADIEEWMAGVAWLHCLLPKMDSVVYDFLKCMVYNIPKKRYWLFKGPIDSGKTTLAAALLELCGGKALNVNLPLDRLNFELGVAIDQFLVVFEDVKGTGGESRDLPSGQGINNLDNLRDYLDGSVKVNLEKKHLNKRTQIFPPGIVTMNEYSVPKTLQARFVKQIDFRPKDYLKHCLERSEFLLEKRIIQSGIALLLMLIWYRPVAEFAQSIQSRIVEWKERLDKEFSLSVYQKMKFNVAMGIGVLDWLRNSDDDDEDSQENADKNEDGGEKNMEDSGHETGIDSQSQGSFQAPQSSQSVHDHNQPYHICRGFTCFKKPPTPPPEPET
assay: SV40 large T antigen inhibitors, biochemical (AID 1903)
study-conditions: SV40 large T antigen ATPase/helicase inhibition assay; at 20 µM; stronger effect = higher value
Among all 310,000 compounds or so, about 1,200 (0.39%) were called active. The list is a sample of the results. Results with a measured potency or affinity are listed apart.
reported-metric: inhibition (%)

• O=C1[C@H]2CCCC[C@H]2C(=O)N1CCCCN1CCN(c2nsc3ccccc23)CC1 = 11.2
• O=c1oc2c(-c3cccc(F)c3)cc(O)cc2s1 = 6.75
• CCOC(=O)C1=NN(c2ccc(C)cc2)CC1C(=O)OC (stereo not drawn) = 7.97
• CSc1ccc(-c2nc(CSCC(=O)NCCCN3CCCC3=O)c(C)o2)cc1 = 8.19
• CCSC1=N/C(=C\c2ccc(-c3ccccc3[N+](=O)[O-])o2)C(=O)S1 = 45.4
• CC1=C/C(=N\OS(=O)(=O)c2ccccc2)C=CC1=O = 26.7
• Cc1nc2ncccn2c1-c1csc(Nc2ccccc2)n1 = 16.1
• CN(C)CCN(C(=O)c1ccc(S(=O)(=O)N(C)C)cc1)c1nc2cc3c(cc2s1)OCCO3 = 3.41
• CCOC(=O)C1CCCN(c2c(N3CCC(N4CCCCC4)CC3)c(=O)c2=O)C1 (stereo not drawn) = 0.55
• COc1cc(/C=C2\SC(c3ccc(C)cc3)=NC2=O)cc(OC)c1OC = 14.7
• Cc1cc(Br)ccc1NC(=O)CN1C(=S)NC(C)(C)CC1C (stereo not drawn) = 5.62
• CC(=O)Oc1ccc2oc(/C=C/N(C)C)c([N+](=O)[O-])c2c1 = 13
• CC1=NN(c2ccccc2)C(=O)C1c1ccccc1 (stereo not drawn) = 31.6
• C/C(=N\NC(=O)Cn1ccc(C(F)(F)F)n1)c1ccc(N2CCOCC2)cc1 = 5.06
• COc1ccc(S(=O)(=O)N2CCc3cc4c(cc3C2C)OCCCO4)cc1 (stereo not drawn) = -0.77
• COC(=O)c1[nH]c2ccc(F)cc2c1NC(=O)Nc1ccc(OC)cc1 = 11.4
• Cc1ccc(S(=O)(=O)ON=C2CCN(S(=O)(=O)c3ccccc3)CC2)cc1 = 1.39
• COc1ccc(S(=O)(=O)N2CCCC(C(=O)N3CCOCC3)C2)cc1OC (stereo not drawn) = 7.49
• Cc1cc(C(=O)NCc2ccco2)c2cc(F)ccc2n1 = 5.22
• CCCCOc1ccc(C2(C)NC(=O)NC2=O)cc1 (stereo not drawn) = 3.93
• Fc1ccc(Nc2nc(-c3cccnc3)cs2)cc1 = 6.02
• Cc1ccc(-c2cc(O)cc3sc(=O)oc23)cc1C = 9.82
• O=C1CCC(C(=O)OCC(=O)c2ccccc2)N1 (stereo not drawn) = -3.04
